- Test system: HOP-92
- protocol: NCI tumour cell line growth inhibition, 48 h
Active and inactive are the calls of the source. Cut-off read from the data, not from the text of the source: active = GI50 up to about 1.1 µM and inactive = higher.

molecule	GI50
O=C(/C=C/c1ccccc1Cl)c1ccc(Cl)c(Cl)c1	26.9 µM (inactive)
S=C(/N=C1/NCC(CN2CCN(c3ccccc3)CC2)O1)Nc1ccccc1 (configuration not stated)	92.3 µM (inactive)
CC1CC2C(=O)NC(=O)C2c2[nH]c3ccccc3c21 (configuration not stated)	34.4 µM (inactive)
C/C=C/C=C/c1cc2cc3c(c(O)c2c(=O)[nH]1)C1(CC3)C(=O)c2c(O)c3c(c(O)c2C1=O)C(=O)C(OC)=CC3=O (configuration not stated)	0.0328 µM (active)
CC[C@@H]1OC2(C)CC(S(=O)(=O)c3ccccc3O)CC1O2 (some centres not stated)	> 100 µM (inactive)
COc1cc2nc3n(c2cc1OC)C(O)c1c(Cl)nc(SC)nc1S3 (configuration not stated)	12.2 µM (inactive)
CN(C)C(=S)/N=c1\ssc(=S)n1C1CCCCC1	35.2 µM (inactive)
CC12CC1C(c1cccc([N+](=O)[O-])c1)(c1cccc([N+](=O)[O-])c1)N=N2 (configuration not stated)	14.1 µM (inactive)
CSC1=NN=C(SC)NN1	0.173 µM (active)
COc1ccc(OC)c2c(=O)c3ccccc3[nH]c12	37.1 µM (inactive)
CC(=O)c1cc2c(s1)C(=O)c1ccsc1C2=O	1.56 µM (inactive)
CCCCCCCC/C=C(\Br)C(O)C(Br)Br (configuration not stated)	20.9 µM (inactive)
CC(=O)OC1CC2C(C)(C)C(=O)C=C[C@]2(C)C2CCC3(C)C(c4ccoc4)[C@@H](O)[C@H]4O[C@]43[C@]12C (some centres not stated)	20.3 µM (inactive)
S=C(N/N=C\C=N/NC(=S)N1CCCCC1)N1CCCCC1	3.23 µM (inactive)
CCOC(=O)Nc1ccc2c(c1)N(C(=O)CCN(CC)CC)c1ccccc1S2	18.9 µM (inactive)
Cc1ccc(S(=O)(=O)NC2C(=O)c3ccccc3C(=O)C2n2ccnc2)cc1 (configuration not stated)	35.8 µM (inactive)
CC(C)=CCc1[nH]c2ccccc2c1C1=C(O)C(=O)C(c2c(CC=C(C)C)[nH]c3ccccc23)=C(O)C1=O	1.12 µM (inactive)
CCC(C)N1CN(c2ccccc2)C2(CCN(CCCC3(c4ccc(F)cc4)OCCO3)CC2)C1=O (configuration not stated)	< 0.01 µM (active)
Oc1ccc2ccccc2c1/N=N/c1ccccc1	73.5 µM (inactive)
CC1CCOc2ccc(cc2)/C=N\c2ccc(cc2)-c2ccc(cc2)/N=C\c2ccc(cc2)OCC1	> 100 µM (inactive)
CC1CC2(CCC1OCc1ccccc1)OCCO2 (configuration not stated)	> 100 µM (inactive)
C=CCc1cc(-c2cc(CC=C)c(O)c(CNCCCl)c2)cc(CNCCCl)c1O	10.6 µM (inactive)
Cc1cn(C2CC(N)C(C(=O)NCC(=O)O)O2)c(=O)[nH]c1=O (configuration not stated)	> 100 µM (inactive)
COC(=O)[C@]1(C)CC[C@]2(C)CC[C@]3(C)C4[C@H]5Oc6c(cc7c(c6C)CCC6[C@@]7(C)CC[C@@]7(C)C8[C@](C)(CCC[C@@]8(C)C(=O)OC)CC[C@]67C)O[C@H]5c5c(cc6c(c5C)O[C@@]5(C)C7=CC=C8[C@@](C)(CC[C@@]9(C)[C@@H]%10C[C@](C)(C(=O)OC)CC[C@]%10(C)CC[C@]89C)C7=CC(=O)[C@@]5(O)O6)[C@]4(C)CC[C@@]3(C)C2C1 (some centres not stated)	1.92 µM (inactive)
Cc1ccc(C2=C(Cl)C(=O)C(c3ccc(C)cc3)=C(Cl)C2=O)cc1	> 100 µM (inactive)
C=C1CCCC(C)(C)[C@H]1C/C=C1\CCOC1=O	12.1 µM (inactive)
O=c1[nH]c2cc3cccnc3c(Cl)c2nc1C(F)(F)F	7.16 µM (inactive)
COc1cc2c(cc1O)CCN[C@@]21CS[C@H]2c3c(OC(C)=O)c(C)c4c(c3C(COC1=O)N1C2C2c3c(cc(C)c(OC)c3O)CC([C@@H]1O)N2C)OCO4 (some centres not stated)	< 0.0001 µM (active)
O=C(C1OC1c1ccc(F)cc1)C12CC3CC(CC(C3)C1)C2 (configuration not stated)	20.3 µM (inactive)
Cc1ccc(S(=O)(=O)Nn2c(-c3ccccc3)c(C#N)c(-c3ccc(Cl)cc3)c(C#N)c2=O)cc1	19.5 µM (inactive)
O=C(NCCCCCCNC(=O)OCCSCCn1cc(C(=O)NC(=O)OCc2ccccc2)c(=O)[nH]c1=O)OCCSCCn1cc(C(=O)NC(=O)OCc2ccccc2)c(=O)[nH]c1=O	32.1 µM (inactive)
Cn1c(=O)[nH]c2nccnc2c1=O	> 10 µM (inactive)
CCCC(=O)NC1=C(Cl)C(=O)c2ccccc2C1=O	1.82 µM (inactive)
COCCOCOC(C)(C)[C@H](CCOC(C)=O)O[Si](c1ccccc1)(c1ccccc1)C(C)(C)C	5.61 µM (inactive)
O=C(NC1C=Nc2ccc([N+](=O)[O-])cc2NC1=O)c1cc(Cl)cc([N+](=O)[O-])c1 (configuration not stated)	> 100 µM (inactive)
CN(C)c1ccc(C=C2C(=O)N(c3ccccc3)N(c3ccccc3)C2=O)cc1	15.6 µM (inactive)
CC1C2(C)OC(=N)C(C#N)(C(c3ccco3)O2)C1(C#N)C#N (configuration not stated)	22.3 µM (inactive)
